median fluorescence intensity fold over isotype values for the binders below.
# targetOfAssay: SARS-CoV-2 full length spike protein (wild type) (SARS-CoV-2, UniProt P0DTC2 14-1208)
measuredEndpoint: median fluorescence intensity fold over isotype (fold over isotype control)

binder="antibody 316 (antibody, V domains shown) VH: QVHLVESGGGVVQPGRSLRLSCAASGFTLTAYAMHWVRQAPGKRLEWVALISYDGSVKKYADSVKGRITVSGDTSTNTLHLQMNSLRADDTAVYYCVRGGVSGPNSFDLWGQGTMVTVSS VL: DVVMTQSPLSLPVTLGQPASMSCRSSQSLEYSDGNTYVNWFHQRPGQSPRRLIYKVSYRDSGVPDRFSGSGSGTDFTLQISRVEAEDVGIYYCMQGTHWPVTFGQGTKVEIK" resultnumber=442
binder="antibody 327 (antibody, V domains shown) VH: QVQLVESGGGVVQPGRSLRLSCAASGFNLSNYAMHWVRQASGKGLEWVSLISYDGSIKYYTDSVKGRFTVSGDNSKNTLFLQMNSLRPDDSALYYCVRGGVSGPNSFDMWGQGTTVTVSS VL: DVVMTQSPLSLPVTLGQPASISCRSSQSLVYSDGNTYVNWFQQRPGQSPRRLIYQVSIRASGVPDRFSGSGSGTDFALKISRVEAEDVGIYYCMQGTHWPVTFGQGTKVEIK" resultnumber=413
binder="antibody 331 (antibody, V domains shown) V domain 1: QITLKESGPTLVKPTETLTLTCSFSGFSLTKTGEAAGWIRQAPGRALEWVTVIFWDDDKRYSPSLQNRISVTKDTSKNQVVLRMTNVARFDTGTYFCWAMGGPGKEYFGQGTLVAVSS V domain 2: QSVLTQPPSVSGAPGQRVTISCTGTSSSIGPYSDVHWYQHVSGKAPRLLIFGNSNRPSGVPDRFSGSKSGTSASLVIAGLQAEDEADYYCQSYDSSLGEIYVFGTGTTVTVL" resultnumber=850
binder="antibody 340 (antibody, V domains shown) VH: QVQLVQSGAEVKKPGASVKVSCKASGYTFTSYDINWVRQATGQGLEWMGWMNPNSGNTGYAQKFQGRVTMTRNTSISTAYMELSSLRSEDTAVYYCARGRYCTGGVCWGDWYFDLWGRGTLVTVSS VL: QSVLTQPPSVSGAPGQRVTISCTGSSSNIGAGYDVHWYQQLPGTAPKFLIYGNSNRPSGVPDRFSGSKSGTSASLAITGLQAEDEADYYCQSYDSSLSGPVFGGGTKLTVL" resultnumber=547

Provenance of the data: patent US20210292393A1
